Target: Gal(a1-3)Gal(b1-3)GlcNAc(b1-3)GalNAc
Test: glycan array binding signal (z-score within array); higher = stronger binding
Conditions: glycan notation: IUPAC condensed, linker removed
Only a selection was taken, and the strongest signals are over-represented in it overall.
For each entry below, report its glycan array binding signal (z-score) value.
Answer using only a numeral; do not append any unit.

// query Suppose we examine the binder OrysaEULS2 (Oryza sativa) (protein) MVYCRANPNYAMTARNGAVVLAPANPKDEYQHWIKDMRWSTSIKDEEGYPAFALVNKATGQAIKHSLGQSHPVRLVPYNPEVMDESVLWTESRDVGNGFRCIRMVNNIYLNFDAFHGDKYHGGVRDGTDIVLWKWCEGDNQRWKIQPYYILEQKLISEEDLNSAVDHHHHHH ; what glycan array binding signal (z-score) value has been reported?
// result -0.176

// query Next binder up: Intelectin-1a (Mus musculus) (protein) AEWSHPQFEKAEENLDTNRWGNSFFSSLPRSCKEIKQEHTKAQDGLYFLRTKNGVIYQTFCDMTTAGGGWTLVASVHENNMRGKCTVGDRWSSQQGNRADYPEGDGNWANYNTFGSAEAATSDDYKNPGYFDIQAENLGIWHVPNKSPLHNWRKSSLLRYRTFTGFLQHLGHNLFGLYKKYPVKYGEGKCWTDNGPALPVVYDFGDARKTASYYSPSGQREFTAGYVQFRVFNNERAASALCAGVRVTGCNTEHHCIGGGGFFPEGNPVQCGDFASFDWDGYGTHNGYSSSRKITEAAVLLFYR
// result -0.09

// query // same read-out, input: Clec18A (Homo sapiens) (protein) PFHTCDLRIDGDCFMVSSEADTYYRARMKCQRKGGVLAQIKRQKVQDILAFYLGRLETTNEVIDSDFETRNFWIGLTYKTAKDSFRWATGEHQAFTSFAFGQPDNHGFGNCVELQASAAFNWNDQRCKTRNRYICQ
// result -0.324

// query # repeat for UDA (Urtica dioica), P11218 (protein) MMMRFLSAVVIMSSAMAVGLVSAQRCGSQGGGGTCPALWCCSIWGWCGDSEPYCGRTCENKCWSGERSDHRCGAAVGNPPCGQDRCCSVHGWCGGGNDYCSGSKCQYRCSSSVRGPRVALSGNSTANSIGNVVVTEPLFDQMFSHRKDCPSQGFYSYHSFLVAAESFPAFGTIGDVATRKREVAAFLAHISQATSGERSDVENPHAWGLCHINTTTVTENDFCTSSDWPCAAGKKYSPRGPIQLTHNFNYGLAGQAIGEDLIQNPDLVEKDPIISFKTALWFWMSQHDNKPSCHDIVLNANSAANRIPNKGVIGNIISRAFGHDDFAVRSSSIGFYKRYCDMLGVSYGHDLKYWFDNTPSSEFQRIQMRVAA
// result -0.177
